Source of measurements: the Kinase Knowledgebase extract (Sharma et al. 2016)

molecular target: PIK3CA (human); experiment: Inhibition of A2780 Cell Proliferation
reported_endpoint: EC50

Recorded results for 5 molecules are shown here.
CC(=O)Nc1cn2cc(-c3cnc(N)c(OCC4CCN(C)CC4)n3)ccc2n1 :: < 10 µM
CNCC(=O)Nc1cn2cc(-c3cnc(N)c(OCCOC)n3)ccc2n1 :: < 10 µM
Nc1ncc(-c2ccc3nc(NC(=O)[C@@H]4CCN4)cn3c2)cc1C(F)(F)F :: < 10 µM
CCNN=Cc1cc(-c2ccc3nc(NC(C)=O)cn3c2)cnc1N :: < 10 µM
Nc1ccc(-c2ccc3nc(NC(=O)CCCN4CCOCC4)sc3c2)cn1 :: < 25 µM

Task: Quick one: EC50 of CC(=O)Nc1cn2cc(-c3cnc(N)c(N4CCOCC4)n3)ccc2n1 ?
Result: < 10 µM

Task: Quick one: EC50 of CC(C)(C(=O)Nc1cn2cc(-c3cnc(N)c(C(F)(F)F)c3)ccc2n1)c1ccccc1 ?
Result: < 25 µM

Task: Quick one: EC50 of CC(=O)Nc1cn2cc(-c3cnc(N)c(N4CCN(C)CC4)n3)ccc2n1 ?
Result: < 10 µM

Task: Quick one: EC50 of CNC(=O)c1ccc(-c2c(NC(C)=O)nc3ccc(-c4cnc(N)c(C(F)(F)F)c4)cn23)cc1 ?
Result: < 25 µM

Task: Quick one: EC50 of Nc1ncc(-c2ccc3nc(NC(=O)c4ccc(F)nc4)cn3c2)cc1C(F)(F)F ?
Result: < 25 µM
